# System: Mus musculus
# METHOD SUMMARY: Biodistribution in mouse B16F0 cells bearing C57B16 mouse tumor at 1.26 to 5.29 MBq, iv after 5 days
# Type: ADME, organism-based, Neoplasm
# ASSAY CONTEXT: in vivo, 120 h
In this section, each of the compounds is paired with its reported Drug uptake.
Your answer is read as % ID/g, so omit the unit and give the number.

# annotated cases, reported Drug uptake shown
# COMPOUND STRUCTURE STRING, Drug uptake, % ID/g
rows = [
    ("CCN(CCNC(=O)c1cnc2cc([125I])ccc2n1)CCc1ccnc(F)c1.Cl.Cl", 5.2),
    ("CCN(CCNC(=O)c1cnc2cc([125I])ccc2n1)c1cccc(F)n1", 0.3),
    ("CCN(CCNC(=O)c1ccnc(F)c1)CCNC(=O)c1cnc2cc([125I])ccc2n1.Cl.Cl", 5.1),
    ("CCN(CCNC(=O)c1ccc2cc([125I])ccc2c1)CCOc1cccnc1F.Cl", 2.8),
]

## Input Can you share its Drug uptake? I mean this compound: CCN(CCNC(=O)c1cn2cc([125I])ccc2n1)CCOc1cccnc1F.Cl.Cl
## Output 6.4

====

# Test system: Mus musculus
# METHOD SUMMARY: Biodistribution in mouse B16F0 cells bearing C57B16 mouse tumor at 1.26 to 5.29 MBq, iv after 24 hrs
# Format: ADME, organism-based, Neoplasm
# ASSAY CONTEXT: in vivo
OUTCOME MEASURE: Drug uptake (% ID/g)
Report only the number, with the unit % ID/g understood.

# COMPOUND STRUCTURE STRING, Drug uptake / % ID/g
data = [
    ("CCN(CCCc1ccnc(F)c1)CCNC(=O)c1cnc2cc([125I])ccc2n1.Cl.Cl", 16.3),
]

## Input # get_value(readout='Drug uptake', item= CCN(CCNC(=O)c1cnc2cc([125I])ccc2n1)Cc1ccnc(F)c1.Cl.Cl )
## Output 16

## Input // Drug uptake lookup, key: CCN(CCNC(=O)c1ccnc(F)c1)CCNC(=O)c1cnc2cc([125I])ccc2n1.Cl.Cl
## Output 12.1

## Input Entry under review: CCN(CCNC(=O)c1cccc2nc3cc([125I])ccc3nc12)CCOc1cccnc1F.Cl.Cl . Reported Drug uptake?
## Output 13.8

====

# Test system: Mus musculus
# METHOD SUMMARY: Biodistribution in mouse B16F0 cells bearing C57B16 mouse tumor at 1.26 to 5.29 MBq, iv after 3 hrs
# Type: ADME, organism-based, Neoplasm
# ASSAY CONTEXT: in vivo
OUTCOME MEASURE: Drug uptake (% ID/g)
Write it as a number; the unit % ID/g goes unstated.

# COMPOUND STRUCTURE STRING, TEST VALUE
measured = [
    ("CCN(CCNC(=O)c1cnc2cc([125I])ccc2n1)Cc1ccnc(F)c1.Cl.Cl", 12),
]

## Input # input molecule: CCN(CCNC(=O)c1cnc2cc([125I])ccc2n1)c1cccc(F)n1 ; wanted: its Drug uptake
## Output 2.2

## Input Item under review: CCN(CCNC(=O)c1cccc2nc3cc([125I])ccc3nc12)CCOc1cccnc1F.Cl.Cl . Reported Drug uptake?
## Output 12.3

====

# Test system: Mus musculus
# METHOD SUMMARY: Biodistribution in mouse B16F0 cells bearing C57B16 mouse tumor at 1.26 to 5.29 MBq, iv after 10 days
# Assay type: ADME, organism-based, Neoplasm
# ASSAY CONTEXT: in vivo, 240 h
OUTCOME MEASURE: Drug uptake
Please provide the amount together with its unit, number first.

# COMPOUND STRUCTURE STRING, OUTCOME MEASURE, TEST VALUE
records = [
    ("CCN(CCNC(=O)c1cnc2cc([125I])ccc2n1)CCc1ccnc(F)c1.Cl.Cl", "Drug uptake", "1.6 % ID/g"),
    ("CCN(CCNC(=O)c1cn2cc([125I])ccc2n1)CCOc1cccnc1F.Cl.Cl", "Drug uptake", "2.3 % ID/g"),
    ("CCN(CCNC(=O)c1cnc2cc([125I])ccc2n1)CCNc1cccc(F)n1.Cl.Cl", "Drug uptake", "0.8 % ID/g"),
]

Could you now consider this next compound?
## Input What Drug uptake value was documented for this compound, CCN(CCNC(=O)c1cnc2cc([125I])ccc2n1)CCOc1cccnc1F.Cl.Cl ?
## Output 1.7 % ID/g
